Recorded IC50 for the following molecules
- assay-target: full-length beta-Catenin (Uniprot ID P35222) (Homo sapiens)
- Construct: 10 nM full-length beta-Catenin (Uniprot ID P35222)
- Sequence (P35222 whole entry): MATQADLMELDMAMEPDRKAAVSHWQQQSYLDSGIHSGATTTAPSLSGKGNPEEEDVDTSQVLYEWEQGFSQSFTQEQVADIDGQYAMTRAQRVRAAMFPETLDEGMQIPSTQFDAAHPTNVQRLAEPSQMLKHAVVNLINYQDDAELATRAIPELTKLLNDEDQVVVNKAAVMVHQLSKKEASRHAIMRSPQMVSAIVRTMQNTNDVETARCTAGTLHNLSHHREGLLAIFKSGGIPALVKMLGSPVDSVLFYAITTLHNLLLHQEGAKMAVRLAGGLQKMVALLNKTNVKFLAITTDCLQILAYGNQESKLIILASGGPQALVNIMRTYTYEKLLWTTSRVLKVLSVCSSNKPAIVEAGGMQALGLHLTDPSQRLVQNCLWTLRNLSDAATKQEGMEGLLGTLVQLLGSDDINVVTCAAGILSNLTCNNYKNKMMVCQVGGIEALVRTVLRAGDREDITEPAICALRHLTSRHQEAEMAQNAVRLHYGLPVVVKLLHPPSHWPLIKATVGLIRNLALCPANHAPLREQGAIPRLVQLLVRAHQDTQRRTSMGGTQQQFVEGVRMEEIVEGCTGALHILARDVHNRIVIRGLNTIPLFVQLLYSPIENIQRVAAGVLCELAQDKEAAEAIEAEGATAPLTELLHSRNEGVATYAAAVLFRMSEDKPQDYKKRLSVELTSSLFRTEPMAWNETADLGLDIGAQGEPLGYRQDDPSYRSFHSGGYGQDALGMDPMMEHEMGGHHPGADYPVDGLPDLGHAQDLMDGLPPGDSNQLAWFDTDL
- assay-overview: Fluorescence polarization IC50 (beta-catenin / 5FAM-TCF4 10-53 competition)
- Type: binding
- run-parameters: read-out: FP EC50
Field format: number, assumed nM, no unit text.

Worked examples, 5 molecules total:
CC(=O)N1CCC[C@]12CC=CCCCC1(CCCC=CCCCOC(=O)N3CC[C@@](C(=O)N[C@@H](Cc4ccsc4)C(=O)N[C@@H](Cc4csc5ccccc45)C(=O)N[C@@H](CCC(N)=O)C(N)=O)(C3)NC(=O)[C@H](CC(N)=O)NC(=O)[C@H](Cc3ccccc3)NC(=O)[C@H](C)NC(=O)[C@H](C)NC(=O)[C@H](CC(=O)O)NC(=O)[C@H](CC(=O)O)NC1=O)NC(=O)[C@H](CC(C)C)NC(=O)[C@H](CC(=O)O)NC2=O (stereo partly shown) [I-688]	6
CC(=O)N1CCC[C@]12CC=CCCCC1(CCCC=CCCCCCC[C@@](C)(C(=O)N[C@@H](Cc3ccccc3)C(=O)N[C@@H](Cc3csc4ccccc34)C(=O)N[C@@H](CCC(N)=O)C(N)=O)NC(=O)[C@H](CCC(N)=O)NC(=O)[C@H](Cc3ccccc3)NC(=O)[C@H](C)NC(=O)[C@H](C)NC(=O)[C@H](CC(=O)O)NC(=O)[C@H](CC(=O)O)NC1=O)NC(=O)[C@H](CC(C)C)NC(=O)[C@H](CC(=O)O)NC2=O (stereo partly shown) [I-559]	43
CC(=O)N1CCC[C@]12CC=CCCCC1(CCCC=CCCCCCC[C@@](C)(C(=O)N[C@@H](Cc3ccccc3)C(=O)N[C@@H](Cc3csc4ccccc34)C(=O)N[C@@H](CCC(N)=O)C(N)=O)NC(=O)[C@H](CC(N)=O)NC(=O)[C@H](Cc3ccccc3)NC(=O)[C@H](C)NC(=O)[C@H](C)NC(=O)[C@H](CC(=O)O)NC(=O)[C@H](CC(=O)O)NC1=O)NC(=O)[C@H](CC(C)C)NC(=O)[C@H](CC(=O)O)NC2=O (stereo partly shown) [I-562]	51
CC(=O)N1CCC[C@]12CC=CCCCC1(CCCC=CCCCCCC[C@@](C)(C(=O)N[C@@H](Cc3ccccc3)C(=O)N[C@@H](Cc3csc4ccccc34)C(=O)N[C@@H](CCC(N)=O)C(N)=O)NC(=O)[C@H](CC(N)=O)NC(=O)[C@H](Cc3ccccc3C)NC(=O)[C@H](C)NC(=O)[C@H](C)NC(=O)[C@H](CCC(=O)O)NC(=O)[C@H](CC(=O)O)NC1=O)NC(=O)[C@H](C)NC(=O)[C@H](CC(=O)O)NC2=O (stereo partly shown) [I-456]	2170
CC(=O)N1CCC[C@]12CC=CCCCC1(CCCC=CCCCOC(=O)N3CC[C@@](C(=O)N[C@@H](Cc4ccsc4)C(=O)N[C@@H](Cc4csc5ccccc45)C(=O)N[C@@H](CCC(N)=O)C(N)=O)(C3)NC(=O)[C@H](CCC(N)=O)NC(=O)[C@H](Cc3ccccc3)NC(=O)[C@H](C)NC(=O)[C@H](C)NC(=O)[C@H](CC(=O)O)NC(=O)[C@H](CC(=O)O)NC1=O)NC(=O)[C@H](CC(C)(C)C)NC(=O)[C@H](CC(=O)O)NC2=O (stereo partly shown)	14

Q. Look up IC50 of CCCC[C@@H]1NC(=O)[C@H](CCC(=O)O)NC(=O)[C@H](CC(=O)O)NC(=O)C2(CCCC=CCCCCCC[C@@](C)(C(=O)N[C@@H](Cc3ccccc3)C(=O)N[C@@H](Cc3csc4ccccc34)C(=O)N[C@@H](CCC(N)=O)C(N)=O)NC(=O)[C@H](CCC(N)=O)NC(=O)[C@H](Cc3ccccc3)NC(=O)[C@H](C)NC1=O)CCCC=CC[C@]1(CCCN1C(C)=O)C(=O)N[C@@H](CC(=O)O)C(=O)N[C@@H]([C@@H](C)CC)C(=O)N2 (stereo partly shown) [I-657] and report it.
A. 46

Q. Report IC50, nothing else, for this molecule: COc1ccccc1C[C@H](NC(=O)[C@]1(C)CCCCCCC=CCCCC2(CCCC=CC[C@]3(CCCN3C(C)=O)C(=O)N[C@@H](CC(=O)O)C(=O)N[C@@H](C)C(=O)N2)C(=O)N[C@@H](CC(=O)O)C(=O)N[C@@H](CCC(=O)O)C(=O)N[C@@H](C)C(=O)N[C@@H](C)C(=O)N[C@@H](Cc2ccccc2)C(=O)N[C@@H](CC(N)=O)C(=O)N1)C(=O)N[C@@H](Cc1csc2ccccc12)C(=O)N[C@@H](Cc1c[nH]cn1)C(N)=O (stereo partly shown) [I-510]
A. 128

Q. Look up and state reported IC50 for CC(=O)N1CCC[C@]12CC=CCCCC1(CCCC=CCCCCCC[C@@](C)(C(=O)N[C@@H](Cc3ccccc3)C(=O)N[C@@H](Cc3csc4ccccc34)C(=O)N[C@@H](Cc3c[nH]cn3)C(N)=O)NC(=O)[C@H](CCC(N)=O)NC(=O)[C@H](Cc3ccccc3)NC(=O)[C@H](C)NC(=O)[C@H](C)NC(=O)[C@H](CCC(=O)O)NC(=O)[C@H](CC(=O)O)NC1=O)NC(=O)[C@H](C)NC(=O)[C@H](CC(=O)O)NC2=O (stereo partly shown) [I-419]
A. 23

Q. Check the records and state IC50 for CC(=O)N1CCC[C@]12CC=CCCCC1(CCCC=CCCCCCC[C@@](C)(C(=O)N[C@@H](Cc3ccsc3)C(=O)N[C@@H](Cc3csc4ccccc34)C(=O)N[C@@H](CCC(N)=O)C(N)=O)NC(=O)[C@H](CCC(N)=O)NC(=O)[C@H](Cc3ccccc3)NC(=O)[C@H](C)NC(=O)[C@H](C)NC(=O)[C@H](CCC(=O)O)NC(=O)[C@H](CC(=O)O)NC1=O)NC(=O)[C@H](C)NC(=O)[C@H](CC(=O)O)NC2=O (stereo partly shown) [I-426]
A. 109

Q. Give the value of IC50 reported for the following: CC[C@H](C)[C@@H]1NC(=O)[C@H](CC(=O)O)NC(=O)[C@]2(CC=CCCCC3(CCCC=CCCCCCC[C@@](C)(C(=O)N[C@@H](Cc4ccccc4)C(=O)N[C@@H](Cc4csc5ccccc45)C(=O)N[C@H](C(N)=O)[C@@H](C)O)NC(=O)[C@H](CCC(N)=O)NC(=O)[C@H](Cc4ccccc4)NC(=O)[C@H](C)NC(=O)[C@H](C)NC(=O)[C@H](CCC(=O)O)NC(=O)[C@H](CC(=O)O)NC3=O)NC1=O)CCCN2C(C)=O (stereo partly shown) [I-641]
A. 122
